# system: γ-secretase (Homo sapiens, UniProt P49768)
# Construct: γ-Secretase is composed of four subunits: Aph1, Pen2, glycosylated nicastrin, and endo-proteolyzed presenilin as the catalytic core; endogenous in cells; host or cells: HeLa S3 (ATCC CCL-2.2)
# Sequence (Q9NZ42 whole entry, other chains not shown): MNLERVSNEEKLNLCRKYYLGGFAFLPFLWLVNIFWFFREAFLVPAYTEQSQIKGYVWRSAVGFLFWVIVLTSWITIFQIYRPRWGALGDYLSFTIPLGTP
# Sequence (Q92542 34-709, other chains not shown, further chain): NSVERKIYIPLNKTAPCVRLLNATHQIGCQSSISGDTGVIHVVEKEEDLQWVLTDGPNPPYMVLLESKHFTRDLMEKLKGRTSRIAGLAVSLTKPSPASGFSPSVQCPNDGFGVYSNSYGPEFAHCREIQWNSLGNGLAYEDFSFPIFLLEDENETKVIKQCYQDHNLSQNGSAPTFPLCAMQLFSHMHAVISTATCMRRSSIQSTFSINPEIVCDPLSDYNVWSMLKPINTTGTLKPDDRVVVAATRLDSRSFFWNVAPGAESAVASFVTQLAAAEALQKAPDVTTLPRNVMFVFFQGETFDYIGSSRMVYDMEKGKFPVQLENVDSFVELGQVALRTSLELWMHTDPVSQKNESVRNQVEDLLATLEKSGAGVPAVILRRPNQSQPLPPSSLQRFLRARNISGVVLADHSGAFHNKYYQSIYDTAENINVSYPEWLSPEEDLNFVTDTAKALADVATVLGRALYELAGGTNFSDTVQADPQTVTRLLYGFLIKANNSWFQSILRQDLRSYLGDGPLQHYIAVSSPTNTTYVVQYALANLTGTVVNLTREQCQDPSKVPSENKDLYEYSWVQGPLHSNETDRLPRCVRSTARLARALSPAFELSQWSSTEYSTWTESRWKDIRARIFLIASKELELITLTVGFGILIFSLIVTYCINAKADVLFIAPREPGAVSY
# Sequence (Q96BI3 whole entry, other chains not shown, further chain): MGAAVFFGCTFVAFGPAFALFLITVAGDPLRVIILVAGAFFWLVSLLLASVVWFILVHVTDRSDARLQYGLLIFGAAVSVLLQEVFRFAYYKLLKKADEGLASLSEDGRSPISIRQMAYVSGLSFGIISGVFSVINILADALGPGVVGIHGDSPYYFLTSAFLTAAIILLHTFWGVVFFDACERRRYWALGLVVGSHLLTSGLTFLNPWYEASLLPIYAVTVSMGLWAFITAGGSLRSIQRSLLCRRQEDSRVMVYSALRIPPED
# test protocol: Aβ 1–40 secretion from HeLa cells in the presence of DAPT (sandwich ELISA), dose-response fits
# Assay type: cell-based
# condition details: HeLa, 92 ng/mL pSG5-cDNAwtC99; eqn. 1; read-out: Activation EC50
measurement type: EC50 (µM)
// note: answer is a bare numeric in µM

Exercise: Given "C[C@H](NC(=O)Cc1cc(F)cc(F)c1)C(=O)N[C@H](C(=O)OC(C)(C)C)c1ccccc1" , state its recorded EC50.
Solution: 0.178

====

# system: γ-secretase (Homo sapiens, UniProt P49768)
# Construct: γ-Secretase is composed of four subunits: Aph1, Pen2, glycosylated nicastrin, and endo-proteolyzed presenilin as the catalytic core; endogenous in cells; host or cells: HeLa S3 (ATCC CCL-2.2)
# test protocol: Aβ 1–40 secretion from HeLa cells in the presence of DAPT (sandwich ELISA), dose-response fits
# Format: cell-based
# condition details: HeLa, 15 ng/mL pSG5-cDNAwtC99; eqn. 1; read-out: Activation EC50
measurement type: pEC50
Formally, pEC50 is defined as -log10 of the concentration c, with c in mol/L.

Exercise: Quick one: pEC50 for C[C@H](NC(=O)Cc1cc(F)cc(F)c1)C(=O)N[C@H](C(=O)OC(C)(C)C)c1ccccc1 [DAPT] ?
Solution: 7.15

====

# system: γ-secretase (Homo sapiens)
# Construct: γ-Secretase is composed of four subunits: Aph1, Pen2, glycosylated nicastrin, and endo-proteolyzed presenilin as the catalytic core; endogenous in cells; host or cells: HeLa S3 (ATCC CCL-2.2)
# test protocol: Aβ 1–40 secretion from HeLa cells in the presence of DAPT (sandwich ELISA), dose-response fits
# Type: cell-based
# condition details: HeLa, 92 ng/mL pSG5-cDNAwtC99; eqn. 1; read-out: Inhibition IC50
measurement type: IC50

Exercise: Give IC50 (γ-secretase (Homo sapiens)) of the following molecule: C[C@H](NC(=O)Cc1cc(F)cc(F)c1)C(=O)N[C@H](C(=O)OC(C)(C)C)c1ccccc1 [DAPT]
Solution: 0.661 µM

====

# system: γ-secretase (Homo sapiens, UniProt P49768)
# Construct: γ-Secretase is composed of four subunits: Aph1, Pen2, glycosylated nicastrin, and endo-proteolyzed presenilin as the catalytic core; endogenous in cells; host or cells: HeLa S3 (ATCC CCL-2.2)
# test protocol: Aβ 1–40 secretion from HeLa cells in the presence of DAPT (sandwich ELISA), dose-response fits
# Assay type: cell-based
# condition details: HeLa, 250 ng/mL pSG5-cDNAwtC99; standard dose-response, eqn. 2; read-out: Inhibition IC50
measurement type: IC50
Give the number first and the unit second.

Exercise: Look at this compound and give its reported IC50. "C[C@H](NC(=O)Cc1cc(F)cc(F)c1)C(=O)N[C@H](C(=O)OC(C)(C)C)c1ccccc1"
Solution: 126 nM

====

# system: γ-secretase (Homo sapiens, UniProt P49768)
# Construct: γ-Secretase is composed of four subunits: Aph1, Pen2, glycosylated nicastrin, and endo-proteolyzed presenilin as the catalytic core; endogenous in cells; host or cells: HeLa S3 (ATCC CCL-2.2)
# test protocol: Aβ 1–40 secretion from HeLa cells in the presence of DAPT (sandwich ELISA), dose-response fits
# Format: cell-based
# condition details: HeLa, 25 ng/mL pSG5-cDNAwtC99; eqn. 1; read-out: Activation EC50
measurement type: pEC50
# log scale: pEC50 equals minus log10 of the concentration in mol/L

Exercise: GET /values?readout=pEC50&item= "C[C@H](NC(=O)Cc1cc(F)cc(F)c1)C(=O)N[C@H](C(=O)OC(C)(C)C)c1ccccc1"
Solution: 6.96

====

# system: γ-secretase (Homo sapiens, UniProt P49768)
# Construct: γ-Secretase is composed of four subunits: Aph1, Pen2, glycosylated nicastrin, and endo-proteolyzed presenilin as the catalytic core; endogenous in cells; host or cells: HeLa S3 (ATCC CCL-2.2)
# test protocol: Aβ 1–40 secretion from HeLa cells in the presence of DAPT (sandwich ELISA), dose-response fits
# Format: cell-based
# condition details: untransfected HeLa cells; eqn. 1 with IA and MI as constants; read-out: Activation EC50
measurement type: pEC50
pEC50 here: minus log base 10 of the concentration, concentration in moles per litre.

Exercise: Can you look up the measured pEC50 of "C[C@H](NC(=O)Cc1cc(F)cc(F)c1)C(=O)N[C@H](C(=O)OC(C)(C)C)c1ccccc1" for me?
Solution: 7.14

====

# system: γ-secretase (Homo sapiens, UniProt P49768)
# Construct: γ-Secretase is composed of four subunits: Aph1, Pen2, glycosylated nicastrin, and endo-proteolyzed presenilin as the catalytic core; endogenous in cells; host or cells: HeLa S3 (ATCC CCL-2.2)
# test protocol: Aβ 1–40 secretion from HeLa cells in the presence of DAPT (sandwich ELISA), dose-response fits
# Assay type: cell-based
# condition details: HeLa, 15 ng/mL pSG5-cDNAwtC99; eqn. 1; read-out: Inhibition IC50
measurement type: pIC50
Units for pIC50: none; it is -log10 of a concentration expressed in mol/L.

Exercise: I'd like to know its pIC50. The compound in question is "C[C@H](NC(=O)Cc1cc(F)cc(F)c1)C(=O)N[C@H](C(=O)OC(C)(C)C)c1ccccc1"
Solution: 6.23

====

# system: γ-secretase (Homo sapiens, UniProt P49768)
# Construct: γ-Secretase is composed of four subunits: Aph1, Pen2, glycosylated nicastrin, and endo-proteolyzed presenilin as the catalytic core; endogenous in cells; host or cells: HeLa S3 (ATCC CCL-2.2)
# test protocol: Aβ 1–40 secretion from HeLa cells in the presence of DAPT (sandwich ELISA), dose-response fits
# Format: cell-based
# condition details: HeLa, 400 ng/mL pSG5-cDNAwtC99; standard dose-response, eqn. 2; read-out: Inhibition IC50
measurement type: pIC50
In simple prose, pIC50 is minus the logarithm base ten of a concentration in moles per litre.

Exercise: Find the recorded pIC50 belonging to "C[C@H](NC(=O)Cc1cc(F)cc(F)c1)C(=O)N[C@H](C(=O)OC(C)(C)C)c1ccccc1" and report it.
Solution: 6.96

====

# system: γ-secretase (Homo sapiens, UniProt P49768)
# Construct: γ-Secretase is composed of four subunits: Aph1, Pen2, glycosylated nicastrin, and endo-proteolyzed presenilin as the catalytic core; endogenous in cells; host or cells: HeLa S3 (ATCC CCL-2.2)
# test protocol: Aβ 1–40 secretion from HeLa cells in the presence of DAPT (sandwich ELISA), dose-response fits
# Format: cell-based
# condition details: HeLa, 61 ng/mL pSG5-cDNAwtC99; eqn. 1; read-out: Inhibition IC50
# Experimental: HeLa cells have been transfected using Lipofectamine LTX™ reagent following the manufacturer instructions. […] The day before transfection the cells were trypsinized and counted. […] The assay linear response is in the range from 6–125 pM of Aβ 1–40. […] The reaction was quenched by adding 50 µl of stop solution to each well, and within 15 min the signal intensity was read by measuring absorption at 450 nm. […]
measurement type: IC50 (nM)
Answer in nM, number only, no unit symbol.

Exercise: So what's the measured IC50 for this one? "C[C@H](NC(=O)Cc1cc(F)cc(F)c1)C(=O)N[C@H](C(=O)OC(C)(C)C)c1ccccc1"
Solution: 489

====

# system: γ-secretase (Homo sapiens, UniProt P49768)
# Construct: γ-Secretase is composed of four subunits: Aph1, Pen2, glycosylated nicastrin, and endo-proteolyzed presenilin as the catalytic core; endogenous in cells; host or cells: HeLa S3 (ATCC CCL-2.2)
# test protocol: Aβ 1–40 secretion from HeLa cells in the presence of DAPT (sandwich ELISA), dose-response fits
# Type: cell-based
# condition details: HeLa, 25 ng/mL pSG5-cDNAwtC99; eqn. 1; read-out: Inhibition IC50
measurement type: IC50

Exercise: Endpoint output: IC50 of "C[C@H](NC(=O)Cc1cc(F)cc(F)c1)C(=O)N[C@H](C(=O)OC(C)(C)C)c1ccccc1" . Value?
Solution: 524 nM

====

# system: γ-secretase (Homo sapiens)
# Construct: γ-Secretase is composed of four subunits: Aph1, Pen2, glycosylated nicastrin, and endo-proteolyzed presenilin as the catalytic core; endogenous in cells; host or cells: HeLa S3 (ATCC CCL-2.2)
# test protocol: Aβ 1–40 secretion from HeLa cells in the presence of DAPT (sandwich ELISA), dose-response fits
# Type: cell-based
# condition details: HeLa, 61 ng/mL pSG5-cDNAwtC99; eqn. 1; read-out: Activation EC50
measurement type: pEC50
Please report pEC50 as the negative decimal logarithm of the molar concentration, giving only the number.

Exercise: What value of measured pEC50 is listed for "C[C@H](NC(=O)Cc1cc(F)cc(F)c1)C(=O)N[C@H](C(=O)OC(C)(C)C)c1ccccc1" ?
Solution: 6.97
